- Tested on: SNB-75 CNS
- experimental.protocol: NCI-60 one-dose screen, 48 h
- condition.summary: 10 µM unless noted
About 83,000 compounds went through this panel and 20% of them were active in at least one assay; those are over-represented in the sample as a whole. The source made the active and inactive calls. How the source made its calls: active means growth percent below 10; inactive means the rest.
Labels: class 1 for active, class 0 for inactive

compound	group
CNC(=O)c1cc(Oc2ccc3nc(NC(=O)Nc4ccc(Cl)cc4)sc3c2)ccn1	class 0
Cc1ccc(C)c2c1CCC2C(C)C (stereo unspecified)	class 0
COc1ccc(/C=C/C(=O)c2ccc([N+](=O)[O-])cc2)cc1	class 0
Cc1nc([P+](c2ccccc2)(c2ccccc2)c2ccccc2)c(Sc2sc(-c3ccccc3)nc2[P+](c2ccccc2)(c2ccccc2)c2ccccc2)o1	class 1
COC(=O)[C@]12CC[C@@H](C)[C@H](C)[C@@H]1C1=CC[C@@H]3[C@@]4(C)CC(=O)[C@H](OC(=O)c5ccco5)[C@@]5(C)COC(=C45)C[C@@]3(C)[C@]1(C)CC2	class 0
COc1c(N)c2c(c([N+](=O)[O-])c1OC)C(=O)OC2	class 0
COc1ccc(/C=C/C(=O)NCC(C)O)cc1 (stereo unspecified)	class 0
Nc1c(C(=O)Nc2cccc(Cl)c2)sc2ncc(Cl)cc12	class 0
COc1ccc2c3c(c4ccccc4cc13)C(=O)N(CCN(C)CCN)C2=O	class 1
Nc1ncnc2nc(Br)[nH]c12	class 0
COc1ccc(-c2cc(-c3c(C)oc4cc5occc5c(OC)c4c3=O)nc(N)c2C#N)cc1OC	class 0
CC[C@]12C=CCN3CC[C@@]4(c5cc([C@H]6CCC(=O)N6)c(OC)cc5N(C)[C@H]4[C@@](O)(C(=O)OC)[C@@H]1OC(C)=O)[C@@H]32	class 0
O=C(c1ccccc1)C(CN1CCOCC1)c1ccccc1 (stereo unspecified)	class 0
Cc1ccc2[nH]cc(-c3nc(-c4cn(C)c5ncccc45)cs3)c2c1	class 0
COc1cccc(-c2nn(-c3ccccc3)cc2-c2ccnc(NCCCNS(=O)(=O)c3ccccc3)c2)c1	class 0
C/C(=N\Nc1ccc2ccccc2n1)c1ccccn1	class 0
COc1ccc(-c2cc(-c3cccs3)n(N=O)c(=O)c2C#N)cc1	class 0
Clc1ccc(Cn2cc(-c3nc4ccc(Br)nc4n3Cc3ccc(Cl)cc3)c3cccnc32)cc1	class 0
N=C(N)c1ccc(-c2ccc(-c3cc(F)cc(F)c3)o2)nc1	class 0
COc1ccc2c(c1)c(-c1nc(-c3c[nH]c4ncccc34)cs1)cn2CCNC(=O)OC(C)(C)C	class 0
NC(=O)NCC1CCCCC1	class 0

###

- System: MDA-MB-435 melanoma
- experimental.protocol: NCI-60 one-dose screen, 48 h (100 = growth as untreated, 0 = no growth, -100 = all killed)
- condition.summary: 10 µM unless noted
The panel holds about 83,000 compounds, 20% with a hit somewhere; the sample as a whole holds those more often.
quantity.name: growth (%)

compound	assay.system	display.unit	observed
COc1ccc(C(=O)c2ccc(C)cc2)c(OC)c1OC	MDA-MB-435 melanoma	%	-25.2
CCc1ccc(-c2ccc(Nc3ccccc3)nn2)cc1S(N)(=O)=O	MDA-MB-435 melanoma	%	36.1
CC1(C)CC[C@]2(C(=O)NCCNCCN)CC[C@]3(C)C(=CC[C@@H]4[C@@]5(C)CCC(=O)C(C)(C)[C@@H]5CC[C@]43C)[C@@H]2C1	MDA-MB-435 melanoma	%	61
Cc1cc(N(CCCNc2ccnc3cc(Cl)ccc23)Cc2ccco2)nc(N2CCN(C)CC2)n1	MDA-MB-435 melanoma	%	-5.06
CC(=O)O[C@H]1CC[C@]2(C)[C@H]3CC=C4[C@@H]5[C@H](C)[C@@H](C)CC[C@]5(C(=O)NCCNCCNCCN)CC[C@@]4(C)[C@]3(C)CC[C@H]2C1(C)C	MDA-MB-435 melanoma	%	83
CN(C)c1ccc(N=C2C=CC(=O)C=C2)cc1	MDA-MB-435 melanoma	%	74.5
Cn1cc(-c2csc(-c3cn(CCN)c4ccc(Br)cc34)n2)c2cccnc21	MDA-MB-435 melanoma	%	91.1
C/C(=N\NC(=O)C(C)SC(C)C(=O)N/N=C(\C)c1cccnc1)c1cccnc1 (centres undefined)	MDA-MB-435 melanoma	%	106
CC1(C)C(=O)/C(=C\c2cccnc2)C[C@]2(C)[C@H]3CC[C@@H]4[C@@H](C(=O)/C=C/c5ccncc5)CC[C@@]4(C)[C@]3(C)CC[C@@H]12	MDA-MB-435 melanoma	%	-11.4
C=C(C)[C@@H]1CC[C@]2(C)[C@H](CC=C3[C@@H]4CC(C)(C)CC[C@]4(C=O)CC[C@]32C)[C@@]1(C)CCCN	MDA-MB-435 melanoma	%	95.1
Cc1ccc2c(c1)c(-c1nc(-c3c[nH]c4ncccc34)cs1)cn2C	MDA-MB-435 melanoma	%	96.5
O=C(NC1=CC(=O)c2ccccc2C1=O)c1ccccc1	MDA-MB-435 melanoma	%	2.96
COc1cc(-c2cc(-c3nc4ccccc4[nH]3)[nH]n2)cc(OC)c1OC	MDA-MB-435 melanoma	%	19.2
CC1(C)C(=O)/C(=C\c2ccco2)C[C@]2(C)[C@H]3CC[C@@H]4[C@@H](C(=O)/C=C/c5ccco5)CC[C@@]4(C)[C@]3(C)CC[C@@H]12	MDA-MB-435 melanoma	%	4.33
NNC(=O)c1nc2ccccc2[nH]1	MDA-MB-435 melanoma	%	109
CC(C)(C)c1nc(-c2ccc(O)c(O)c2)cs1	MDA-MB-435 melanoma	%	36.6
Cc1ccnc2c(OCc3ccccc3)cccc12	MDA-MB-435 melanoma	%	90.2
COc1ccc(C(=O)c2cc(OC)c(OC)c(OC)c2)cc1/C=C/C(=O)c1cc(OC)c(OC)c(OC)c1	MDA-MB-435 melanoma	%	65.2
CCSc1ncnc2c1ncn2C1OC(CO)C(O)C1O (centres undefined)	MDA-MB-435 melanoma	%	24

###

- Test system: DU-145 prostate
- experimental.protocol: NCI-60 one-dose screen, 48 h
- condition.summary: 10 µM unless noted
This is part of a sample that, as a whole, favours compounds with a hit. Of some 83,000 tested, about 20% had one in any assay. Calls of active or inactive are those of the source. The calls were made as follows: active = growth percent below 10; inactive = the rest.
Labels: TRUE for active, FALSE for inactive

compound	group
Clc1cc(Cl)cc(Nc2ccc3c(OCCCN4CCOCC4)cccc3n2)c1	FALSE
O=S(=O)(NCCNc1cc(-c2cn(-c3ccccc3)nc2-c2cccc(O)c2)ccn1)c1ccc(F)cc1	FALSE
C=C(C)[C@@H]1CC[C@]2(C(=O)OC)CC[C@]3(C)[C@H](CC[C@@H]4[C@@](C)(CC/C(N)=N/O)[C@H](C(=C)C)CC[C@]43C)[C@@H]12	FALSE
Oc1cc(/C=C/c2nc(N3CCOCC3)c3cc(Cl)c(Cl)cc3n2)cc(O)c1O	FALSE
c1cnc2[nH]cc(-c3csc(-c4cn(CCCN5CCCCC5)c5ccccc45)n3)c2c1	FALSE
C=COCCCCCCCCCCCCCCCCCC	FALSE
CN(C)c1ccc(-c2ccc(-c3ccc(C(=N)N)c(F)c3)s2)cc1	TRUE
COc1cccc(-c2nn(-c3ccccc3)cc2-c2ccnc(NCCNS(=O)(=O)c3ccc(C(F)(F)F)cc3)c2)c1	FALSE
O=C(N/N=C/c1ccccc1SSc1ccccc1/C=N/NC(=O)c1ccccc1)c1ccccc1	FALSE
C#Cc1cc2c(N)c(C(=O)c3cc(OC)c(OC)c(OC)c3)[nH]c2cc1OC	FALSE
C[C@H]1OC(=O)/C=C/[C@@H](O)[C@@H](O)CCCCCCCC[C@@H]1O	FALSE
COc1ccc(NC(=S)N/N=C/c2ccccc2SSCCC(=O)OC[C@H]2O[C@H](O)[C@H](O)[C@@H](O)[C@@H]2O)cc1	FALSE
Cc1cc2nc3c4cc(O)ccc4n(CCN(C)C)c3nc2cc1C	TRUE
CCOc1ccc(NC(=O)c2ccccc2-c2ccccc2C(=O)O)cc1	FALSE
Cc1cc2nc3c4cc(N)ccc4n(CCN(C)C)c3nc2cc1C	FALSE
O=C1NC(=Nc2ccc(S(=O)(=O)Nc3nccs3)cc2)S/C1=C\c1coc2ccccc2c1=O	FALSE
Cc1ccc(N(CC(=O)Nc2ccc(S(=O)(=O)NC3CCN(C)CC3)cc2)S(=O)(=O)c2ccc(Cl)cc2)cc1	FALSE
CC(C)(C)c1[nH]nc2c1C(c1cc3ccccc3[nH]c1=O)Nc1cc(C(=O)OCc3ccccc3)ccc1N2 (stereo not drawn)	FALSE
COc1ccc(/C=C/C(=O)NCC(C)O)cc1 (stereo not drawn)	FALSE
CC(=O)O[C@H]1CC[C@@]2(C)C(=CC[C@@H]3[C@@H]2CC[C@]2(C)C(=O)N(O)C(=O)C[C@@H]32)C1	FALSE
C#CCn1c(C)cc(C)c(C#N)c1=O	FALSE
CCN1CCN(C(=O)[C@]23CCC(C)(C)C[C@@H]2C2=CC[C@@H]4[C@@]5(C)C/C(=C/c6cccnc6)C(=O)C(C)(C)[C@@H]5CC[C@@]4(C)[C@]2(C)CC3)CC1	FALSE
Cc1nnc2nc(N)[nH]n2c1=O	FALSE
CCCCCCCC(=O)SCC/C=C/[C@@H]1CC(=O)NCc2cccc(n2)CN(Cc2ccc3ccccc3c2)CC(=O)N[C@@H](C(C)C)C(=O)O1	FALSE
COc1ccccc1-n1cnc(N)c1C(=O)c1cc(OC)c(OC)c(OC)c1	FALSE
CNC(=O)c1cc(Oc2ccc3nc(NC(=O)Nc4ccc(Cl)cc4)sc3c2)ccn1	FALSE
O=C(/C=C/c1cccc2ccccc12)Nc1ncc(Cc2ccccc2)s1	FALSE
Oc1cccc2oc(=S)[nH]c12	FALSE
O=C1NC(c2ccc(Cl)c(Cl)c2)=C/C1=C\c1ccccc1	FALSE
Nc1ccccc1NC(=O)c1ccc(CN2CCC/C(=C\c3ccccn3)C2=O)cc1	FALSE
Cn1cc(-c2nc(-c3c[nH]c4ncccc34)cs2)c2cc(Cl)ccc21	FALSE
COc1ccc2c(c1)c(-c1nc(-c3c[nH]c4ncccc34)cs1)cn2CCCN1CCCCC1	FALSE
C/C(=N\Nc1cc(C)c2cc(C)ccc2n1)c1ccccn1	FALSE
Cn1cc(-c2csc(-c3cn(C(=O)OC(C)(C)C)c4ccc(Br)cc34)n2)c2cccnc21	FALSE
COc1cc2nc(Cl)nc(Nc3cccc(C(=O)/C=C/c4ccc(Cl)cc4)c3)c2cc1OC	FALSE
O=S(=O)(NCCNc1cc(-c2cn(-c3ccccc3)nc2-c2cccc(O)c2)ccn1)c1ccc(Cl)cc1	FALSE
COc1ccc(CCN2C(=O)C(C)(C)SC2=S)cc1OC	FALSE
Cc1ccc(S(=O)(=O)Nc2ccc(-c3cc(-c4cccc(F)c4)c(C#N)c(=O)[nH]3)cc2)cc1	FALSE
